EXPERIMENTAL_TARGET: D(2) dopamine receptor (Homo sapiens)
Sequence (P14416 whole entry): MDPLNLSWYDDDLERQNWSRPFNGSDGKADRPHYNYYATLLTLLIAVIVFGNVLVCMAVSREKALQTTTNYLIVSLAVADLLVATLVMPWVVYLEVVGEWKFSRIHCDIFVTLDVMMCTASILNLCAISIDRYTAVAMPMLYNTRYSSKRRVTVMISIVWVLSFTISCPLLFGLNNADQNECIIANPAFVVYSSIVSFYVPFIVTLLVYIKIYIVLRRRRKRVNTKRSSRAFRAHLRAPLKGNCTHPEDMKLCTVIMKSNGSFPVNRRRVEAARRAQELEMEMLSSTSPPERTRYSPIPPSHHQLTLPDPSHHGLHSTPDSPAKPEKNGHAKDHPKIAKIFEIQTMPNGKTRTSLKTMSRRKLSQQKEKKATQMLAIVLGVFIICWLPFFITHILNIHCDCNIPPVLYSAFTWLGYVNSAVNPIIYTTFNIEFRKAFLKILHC
PROTOCOL_DETAILS: In vitro binding affinity at human cloned Dopamine receptor D2A by measuring its ability to displace [3H]raclopride from D2A receptor expressed in mouse fibroblast (LtK-) cells
Format: cell-based
pKi: −log10 of the molar value.

[
  {
    "STRUCTURE_SMILES_STRING": "CCCN(C(C)C)[C@@H]1COc2cccc(C(C)=O)c2C1",
    "pKi": 4.52
  }
]

---

EXPERIMENTAL_TARGET: 5-hydroxytryptamine receptor 1A (Rattus norvegicus)
PROTOCOL_DETAILS: In vitro binding affinity at 5-HT1A receptor by measuring its ability to displace [3H]8-OH-DPAT from 5-hydroxytryptamine 1A receptor in rat hippocampal membranes + cortex
Assay type: cell membranes, Hippocampus
QUANTITY: Ki (nM)

[
  {
    "STRUCTURE_SMILES_STRING": "CCCN(CCC)[C@@H]1COc2cccc(C(=O)NC(C)C)c2C1",
    "EXPERIMENTAL_TARGET": "5-hydroxytryptamine receptor 1A (Rattus norvegicus)",
    "UNITS_SYMBOL": "nM",
    "OBSERVED": 64
  }
]

---

EXPERIMENTAL_TARGET: UniProtKB P19327
Sequence (P19327 whole entry): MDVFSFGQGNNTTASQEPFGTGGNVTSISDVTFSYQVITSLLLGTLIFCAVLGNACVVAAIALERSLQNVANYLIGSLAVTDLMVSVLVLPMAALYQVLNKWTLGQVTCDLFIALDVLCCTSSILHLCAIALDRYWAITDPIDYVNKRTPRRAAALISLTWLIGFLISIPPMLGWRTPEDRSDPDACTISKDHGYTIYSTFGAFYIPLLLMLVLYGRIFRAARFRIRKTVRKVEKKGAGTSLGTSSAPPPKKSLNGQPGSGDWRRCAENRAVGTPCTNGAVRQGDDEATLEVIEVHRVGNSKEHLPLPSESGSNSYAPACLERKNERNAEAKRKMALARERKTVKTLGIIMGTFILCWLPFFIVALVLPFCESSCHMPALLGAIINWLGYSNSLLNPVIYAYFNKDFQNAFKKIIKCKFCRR
PROTOCOL_DETAILS: In vitro binding affinity at 5-HT1A receptor by measuring its ability to displace [3H]-8-OH-DPAT from 5-hydroxytryptamine 1A receptor in rat hippocampal membranes+cortex
Assay type: cell membranes, Hippocampus
QUANTITY: Ki

[
  {
    "STRUCTURE_SMILES_STRING": "CCCN(C(C)C)[C@H]1COc2cccc(C(=O)OC(C)C)c2C1",
    "EXPERIMENTAL_TARGET": "UniProtKB P19327",
    "OBSERVED": "0.018 µM"
  },
  {
    "STRUCTURE_SMILES_STRING": "CCCN(C(C)C)[C@H]1COc2cccc(OC)c2C1",
    "EXPERIMENTAL_TARGET": "UniProtKB P19327",
    "OBSERVED": "0.0031 µM"
  },
  {
    "STRUCTURE_SMILES_STRING": "CCCN(C(C)C)[C@@H]1COc2cccc(OC)c2C1",
    "EXPERIMENTAL_TARGET": "UniProtKB P19327",
    "OBSERVED": "0.134 µM"
  }
]
